- target desc: Rac GTPase-activating protein 1 (Homo sapiens, UniProt Q9H0H5)
- Sequence (Q9H0H5 whole entry): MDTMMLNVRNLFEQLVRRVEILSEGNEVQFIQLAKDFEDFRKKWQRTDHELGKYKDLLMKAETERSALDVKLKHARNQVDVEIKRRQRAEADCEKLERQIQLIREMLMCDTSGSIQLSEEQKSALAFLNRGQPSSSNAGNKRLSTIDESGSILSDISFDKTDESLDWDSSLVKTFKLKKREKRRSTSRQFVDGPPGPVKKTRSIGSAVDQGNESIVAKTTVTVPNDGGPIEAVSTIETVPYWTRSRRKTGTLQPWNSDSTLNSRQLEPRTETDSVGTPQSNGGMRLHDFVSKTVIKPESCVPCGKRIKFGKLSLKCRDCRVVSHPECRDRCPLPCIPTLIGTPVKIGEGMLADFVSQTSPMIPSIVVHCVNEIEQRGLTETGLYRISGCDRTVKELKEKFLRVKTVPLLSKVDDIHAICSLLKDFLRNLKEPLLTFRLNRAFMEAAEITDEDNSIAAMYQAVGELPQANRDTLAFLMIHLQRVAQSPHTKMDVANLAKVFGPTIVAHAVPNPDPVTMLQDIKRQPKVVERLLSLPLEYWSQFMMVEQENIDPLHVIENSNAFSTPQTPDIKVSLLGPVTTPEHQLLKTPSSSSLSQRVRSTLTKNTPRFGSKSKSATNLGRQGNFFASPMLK
- assay explanation: MgcRacGAP GTPase-activating activity inhibitors, confirmation, biochemical, ADP Hunter fluorescence, primary and confirmatory (AID 624330)
- Assay type: functional
Active and inactive are the calls of the source. No rule for the calls is given here.
quantity: IC50

Examples with their reported IC50 follow.
compound	IC50
CCOCCCN=C(S)N1CCN(Cc2ccc3c(c2)OCO3)CC1	152 µM (active)
CC(C)[C@H](N[C@@H](C)c1ccccc1)c1c(O)ccc2ccccc12	16.8 µM (active)
COc1cc(CN2CCC(C(=O)N3CCCC(C)C3)CC2)cc(Br)c1O (configuration not stated)	191 µM (active)
CN(c1ccc(O)cc1)c1nc(-c2cccnc2)cs1	17.5 µM (active)
COc1ccc(N2CCN(CC(O)COC(c3ccc(F)cc3)c3ccc(F)cc3)CC2)cc1 (configuration not stated)	92.8 µM (active)
Cc1nc(N)sc1-c1ccccc1	71.9 µM (active)

Now consider the entry below.
Query :: For the compound Cc1cc(N)c2cc(NC(=O)/C=C/c3ccccc3Cl)ccc2n1 , give its reported IC50.
Result :: 23.7 µM (active)
